target: δ-Selinene Synthase (ag4) (SEQ ID No. 20) (Abies grandis, UniProt O64404); construct: made in house; host or cells: E. coli XL1-Blue/pGAG4 or E. coli BL21(DE3)/pSBAG4; test: Product profile of recombinant δ-selinene synthase in vitro (preparative assay, GLC-MS); assay type: biochemical; conditions: from [1-3H]farnesyl diphosphate; total ion current chromatogram
Sequence (O64404 whole entry): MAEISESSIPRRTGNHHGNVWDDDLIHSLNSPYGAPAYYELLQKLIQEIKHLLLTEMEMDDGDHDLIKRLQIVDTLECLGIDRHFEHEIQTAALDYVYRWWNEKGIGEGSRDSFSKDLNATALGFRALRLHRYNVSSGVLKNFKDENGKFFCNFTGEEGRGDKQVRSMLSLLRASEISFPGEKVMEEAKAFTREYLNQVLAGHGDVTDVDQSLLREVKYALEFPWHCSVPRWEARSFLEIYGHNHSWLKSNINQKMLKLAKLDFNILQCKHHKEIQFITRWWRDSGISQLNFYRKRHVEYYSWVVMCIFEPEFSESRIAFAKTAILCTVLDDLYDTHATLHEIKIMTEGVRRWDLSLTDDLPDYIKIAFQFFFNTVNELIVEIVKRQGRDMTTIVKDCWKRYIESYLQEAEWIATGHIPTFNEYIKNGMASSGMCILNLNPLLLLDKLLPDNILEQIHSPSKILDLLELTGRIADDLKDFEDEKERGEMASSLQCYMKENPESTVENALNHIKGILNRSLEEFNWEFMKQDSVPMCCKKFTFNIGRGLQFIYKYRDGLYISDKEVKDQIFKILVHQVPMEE
Exercise: for every item that follows, state its recorded sesquiterpene products of δ-selinene synthase, %.
In your response, put the unit directly after the numeric value.

Exercise: Which sesquiterpene products of δ-selinene synthase, % is reported with δ-Selinene Synthase (ag4) (SEQ ID No. 20) (Abies grandis, UniProt O64404) for this entry: `CC1=C[C@@H]2[C@@H](CC1)C(C)=CC[C@H]2C(C)C` ?
Solution: 0.2%

Exercise: Which sesquiterpene products of δ-selinene synthase, % is reported with δ-Selinene Synthase (ag4) (SEQ ID No. 20) (Abies grandis, UniProt O64404) for this entry: C=C1CCCC2(C)CCC(C(C)C)=CC12 (stereo not drawn) ?
Solution: 0.7%

Exercise: Which sesquiterpene products of δ-selinene synthase, % is reported with δ-Selinene Synthase (ag4) (SEQ ID No. 20) (Abies grandis, UniProt O64404) for this entry: `CC1=CC[C@@H]2[C@H]3[C@H](C(C)C)CC[C@]2(C)[C@@H]13` ?
Solution: 0.1%

Exercise: Which sesquiterpene products of δ-selinene synthase, % is reported with δ-Selinene Synthase (ag4) (SEQ ID No. 20) (Abies grandis, UniProt O64404) for this entry: `C=C1/C=C/[C@H](C(C)C)CC/C(C)=C/CC1` ?
Solution: 0.8%

Exercise: Which sesquiterpene products of δ-selinene synthase, % is reported with δ-Selinene Synthase (ag4) (SEQ ID No. 20) (Abies grandis, UniProt O64404) for this entry: `CC1=CC[C@H]2[C@H]3[C@@H]1[C@]2(C)CC[C@H]3C(C)C` ?
Solution: 0.1%

Exercise: Which sesquiterpene products of δ-selinene synthase, % is reported with δ-Selinene Synthase (ag4) (SEQ ID No. 20) (Abies grandis, UniProt O64404) for this entry: `C=C(C)[C@@H]1CC[C@@]2(C)CCC=C(C)[C@@H]2C1` ?
Solution: 1.7%

Exercise: Which sesquiterpene products of δ-selinene synthase, % is reported with δ-Selinene Synthase (ag4) (SEQ ID No. 20) (Abies grandis, UniProt O64404) for this entry: `CC1=C[C@@H]2C(=C(C)CC[C@H]2C(C)C)CC1` ?
Solution: 1.4%

Exercise: Which sesquiterpene products of δ-selinene synthase, % is reported with δ-Selinene Synthase (ag4) (SEQ ID No. 20) (Abies grandis, UniProt O64404) for this entry: `CC1=C[C@H]2C(=C(C)CC[C@H]2C(C)C)CC1` ?
Solution: 6.4%

Exercise: Which sesquiterpene products of δ-selinene synthase, % is reported with δ-Selinene Synthase (ag4) (SEQ ID No. 20) (Abies grandis, UniProt O64404) for this entry: `CC1=CCC(C(C)C)=C[C@@H]2[C@H](C)CC[C@H]12` ?
Solution: 9.7%

Exercise: Which sesquiterpene products of δ-selinene synthase, % is reported with δ-Selinene Synthase (ag4) (SEQ ID No. 20) (Abies grandis, UniProt O64404) for this entry: `C/C1=C\CC/C(C)=C/CC(C)(C)/C=C/C1` ?
Solution: 0.7%

Exercise: Which sesquiterpene products of δ-selinene synthase, % is reported with δ-Selinene Synthase (ag4) (SEQ ID No. 20) (Abies grandis, UniProt O64404) for this entry: CC1=CCCC2(C)CCC(=C(C)C)CC12 (stereo not drawn) ?
Solution: 1.2%

Exercise: Which sesquiterpene products of δ-selinene synthase, % is reported with δ-Selinene Synthase (ag4) (SEQ ID No. 20) (Abies grandis, UniProt O64404) for this entry: CC(C)=C1C/C=C(\C)CC/C=C(\C)CC1 [Z-E-Germacrene B (tent.), Z,E-Germacrene B] ?
Solution: 1.3%

Exercise: Which sesquiterpene products of δ-selinene synthase, % is reported with δ-Selinene Synthase (ag4) (SEQ ID No. 20) (Abies grandis, UniProt O64404) for this entry: CC1=CC2C(CC1)C(C)=CCC2C(C)C (stereo not drawn) ?
Solution: 2.7%

Exercise: Which sesquiterpene products of δ-selinene synthase, % is reported with δ-Selinene Synthase (ag4) (SEQ ID No. 20) (Abies grandis, UniProt O64404) for this entry: `C=C(CCC=C(C)C)[C@@H]1CC=C(C)CC1` ?
Solution: 0.7%

Exercise: Which sesquiterpene products of δ-selinene synthase, % is reported with δ-Selinene Synthase (ag4) (SEQ ID No. 20) (Abies grandis, UniProt O64404) for this entry: `C=C1CC/C=C(\C)CC[C@@H]2[C@@H]1CC2(C)C` ?
Solution: 1.5%
